Molecular target: T1, O7-bP
T1 chain: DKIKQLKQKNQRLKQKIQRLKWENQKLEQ
Assay: two-hybrid library CCNG1;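 further: natural log of median RNA to DNA barcode read ratio; higher means stronger binding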
Label class 1 when interaction score is strictly below -0.9; at or above that, label class 0.

Binder | Class
DKNKQLKQKIQRLKQKNQRLKWEIQKLEQ [O13-bP] | class 1
DKNKQLKQKIQRLKQENQRLEWKIQKLKQ [O6-bP] | class 0
DKNKQLKQENQRLEQKIQRLKWKIQKLKQ [O10-bP] | class 1
DKIKQLKQEIQRLEQKNQRLKWKNQKLKQ [O4-bP] | class 0
DENKQLEQEIQRLEQKNQRLKWEIQKLEQ [O5-bP] | class 1
DENKQLEQEIQRLEQENQRLEWKIQKLKQ [O14-bP] | class 0
DEIKQLEQENQRLEQKIQRLKWENQKLEQ [O15-bP] | class 0
